Biological target: T1, FZD5-Fc (Homo sapiens, UniProt Q13467)
T1 construct: The FZD5 portion of FZD5-Fc consists of the extracellular Ala27-Pro167 segment of FZD5; Fc (C); purchased R&D Systems 1617-FZ
T1 sequence (Q13467 27-167): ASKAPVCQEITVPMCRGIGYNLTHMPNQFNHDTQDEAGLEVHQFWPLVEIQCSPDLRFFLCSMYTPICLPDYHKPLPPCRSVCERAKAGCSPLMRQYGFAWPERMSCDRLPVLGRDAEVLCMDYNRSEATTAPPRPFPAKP
Assay: Surface plasmon resonance analysis of IgG binding to Frizzled-Fc chimera
Settings: SPR, FZD5
Outcome Measure: affinity (KD), in words

Molecule	Reported Value
IgG-2929: anti-FZD5 IgG molecule incorporating antibody variable region Fv-2929 (antibody, V domains shown) VH: EVQLVESGGGLVQPGGSLRLSCAASGFNISYYYIHWVRQAPGKGLEWVASIYPSSSSTSYADSVKGRFTISADTSKNTAYLQMNSLRAEDTAVYYCARGAMDYWGQGTLVTVSS VL: DIQMTQSPSSLSASVGDRVTITCRASQSVSSAVAWYQQKPGKAPKLLIYSASSLYSGVPSRFSGSRSGTDFTLTISSLQPEDFATYYCQQWYSSYGLITFGQGTKVEIK	sub-nanomolar affinity
IgG-2921: anti-FZD5 IgG molecule incorporating antibody variable region Fv-2921 (antibody, V domains shown) VH: EVQLVESGGGLVQPGGSLRLSCAASGFNISYYYIHWVRQAPGKGLEWVASIYPSSGSTSYADSVKGRFTISADTSKNTAYLQMNSLRAEDTAVYYCARGAMDYWGQGTLVTVSS VL: DIQMTQSPSSLSASVGDRVTITCRASQSVSSAVAWYQQKPGKAPKLLIYSASSLYSGVPSRFSGSRSGTDFTLTISSLQPEDFATYYCQQWYAGSLITFGQGTKVEIK	sub-nanomolar affinity
IgG-2920: anti-FZD5 IgG molecule incorporating antibody variable region Fv-2920 (antibody, V domains shown) VH: EVQLVESGGGLVQPGGSLRLSCAASGFNISYYYIHWVRQAPGKGLEWVASIYPSSGSTSYADSVKGRFTISADTSKNTAYLQMNSLRAEDTAVYYCARGGMDYWGQGTLVTVSS VL: DIQMTQSPSSLSASVGDRVTITCRASQSVSSAVAWYQQKPGKAPKLLIYSASSLYSGVPSRFSGSRSGTDFTLTISSLQPEDFATYYCQQWFAGALITFGQGTKVEIK	sub-nanomolar affinity
